experimental-details: Healthy Japanese subjects, Part 1 (single dose 200, 600, 1200 mg tablets): PK of TAK-935 and M-I
Assay type: in vivo, human
measurement-conditions: human, plasma, oral; TAK-935; single dose 1200 mg; read-out: Mean AUC24
experimental-readout: AUC (ng·h/mL)

INSERT INTO assay_data (substance_smiles, experimental_readout, recorded_result) VALUES
  ('O=C(c1cccnc1-c1ccncc1)N1CCC(O)(Cc2ccccc2)CC1', 'AUC', 11300);

* * *

experimental-details: clinical
Type: in vivo
measurement-conditions: both sexes, human, in vivo, po, 600 mg
experimental-readout: Vd/F (L)

INSERT INTO results (molecule, experimental_readout, recorded_result) VALUES
  ('O=C(c1cccnc1-c1ccncc1)N1CCC(O)(Cc2ccccc2)CC1 [soticlestat]', 'Vd/F', 993);

* * *

experimental-details: Healthy Japanese subjects, Part 1 (single dose 200, 600, 1200 mg tablets): PK of TAK-935 and M-I
Format: in vivo, human
measurement-conditions: human, oral; TAK-935 600 mg single dose, plasma, mean
experimental-readout: AUC(0-t)

INSERT INTO results (substance_smiles, recorded_result) VALUES
  ('O=C(c1cccnc1-c1ccncc1)N1CCC(O)(Cc2ccccc2)CC1', '3860 ng·h/mL');

* * *

experimental-details: Healthy Japanese subjects, Part 2 (100, 200, 300 mg BID up-titration): PK of TAK-935 and M-I
Format: in vivo, human
measurement-conditions: human, plasma, oral, 100 mg, Day 7 (100 mg BID), Part 2, Median; read-out: Cmax
experimental-readout: Cmax

INSERT INTO results (substance_smiles, experimental_readout, recorded_result) VALUES
  ('O=C(c1cccnc1-c1ccncc1)N1CCC(O)(Cc2ccccc2)CC1', 'Cmax', '148 ng/mL');

* * *

experimental-details: Healthy Japanese subjects, Part 2 (100, 200, 300 mg BID up-titration): PK of TAK-935 and M-I
Type: in vivo, human
measurement-conditions: human, plasma, oral, TAK-935; Day 7, Day 14 and Day 21; read-out: Median Tmax
experimental-readout: Tmax (min)

INSERT INTO assay_data (substance_smiles, experimental_readout, recorded_result) VALUES
  ('O=C(c1cccnc1-c1ccncc1)N1CCC(O)(Cc2ccccc2)CC1', 'Tmax', 30);

* * *

experimental-details: Healthy Japanese subjects, Part 2 (100, 200, 300 mg BID up-titration): PK of TAK-935 and M-I
Format: in vivo, human
measurement-conditions: human, plasma, oral, 100 mg, Day 1 (100 mg BID), Part 2, Geo Mean; read-out: AUCtau
experimental-readout: AUC (ng·h/mL)

INSERT INTO assay_data (compound, experimental_readout, value_unit, recorded_result) VALUES
  ('O=C(c1cccnc1-c1ccncc1)N1CCC(O)(Cc2ccccc2)CC1 [soticlestat]', 'AUC', 'ng·h/mL', 209);

* * *

experimental-details: clinical
Assay type: in vivo
measurement-conditions: both sexes, human, in vivo, po, 600 mg
experimental-readout: Tmax

INSERT INTO assay_data (substance_smiles, recorded_result) VALUES
  ('O=C(c1cccnc1-c1ccncc1)N1CCC(O)(Cc2ccccc2)CC1', '31.2 min');

* * *

experimental-details: Healthy Japanese subjects, Part 2 (100, 200, 300 mg BID up-titration): PK of TAK-935 and M-I
Assay type: in vivo, human
measurement-conditions: human, plasma, oral, 100 mg, Day 1, TAK-935 100 mg BID, plasma, mean; read-out: Vz/F
Description: This study consisted of 2 parts, and was a randomized, double-blind, placebo-controlled study to assess safety, tolerability, and PK and PD of TAK-935 when administered orally in healthy Japanese subjects. […] The PK parameters of TAK-935 and its metabolites (M-I) were determined from the concentration-time profiles for all evaluable subjects. […] The following PK parameters were calculated from plasma concentrations of TAK-935 and its metabolites (M-I), unless otherwise specified: […]
experimental-readout: Vd/F

INSERT INTO measurements (substance_smiles, recorded_result) VALUES
  ('O=C(c1cccnc1-c1ccncc1)N1CCC(O)(Cc2ccccc2)CC1', '4100 L');

* * *

experimental-details: Healthy Japanese subjects, Part 2 (100, 200, 300 mg BID up-titration): PK of TAK-935 and M-I
Format: in vivo, human
measurement-conditions: human, plasma, oral, 200 mg, TAK-935; Day 14, 200 mg BID; read-out: mean Cmax
experimental-readout: Cmax (ng/mL)

INSERT INTO measurements (substance_smiles, recorded_result) VALUES
  ('O=C(c1cccnc1-c1ccncc1)N1CCC(O)(Cc2ccccc2)CC1', 980);

* * *

experimental-details: clinical
Assay type: in vivo
measurement-conditions: both sexes, human, in vivo, po, 900 mg
experimental-readout: AUC(0-t) (ng·h/mL)

INSERT INTO measurements (substance_smiles, experimental_readout, recorded_result) VALUES
  ('O=C(c1cccnc1-c1ccncc1)N1CCC(O)(Cc2ccccc2)CC1', 'AUC(0-t)', 7620);

* * *

experimental-details: Healthy Japanese subjects, Part 2 (100, 200, 300 mg BID up-titration): PK of TAK-935 and M-I
Assay type: in vivo, human
measurement-conditions: human, plasma, oral, 100 mg, Day 7, TAK-935 100 mg BID, plasma, mean; read-out: t1/2z (terminal disposition phase half-life) (converted)
experimental-readout: half-life (min)

INSERT INTO assay_data (substance_smiles, experimental_readout, recorded_result) VALUES
  ('O=C(c1cccnc1-c1ccncc1)N1CCC(O)(Cc2ccccc2)CC1', 'half-life', 218);

* * *

experimental-details: Healthy Japanese subjects, Part 2 (100, 200, 300 mg BID up-titration): PK of TAK-935 and M-I
Assay type: in vivo, human
measurement-conditions: human, plasma, oral, 100 mg, Day 1 (100 mg BID), Part 2, Geo Mean; read-out: AUC1ast
experimental-readout: AUC

INSERT INTO assay_data (compound, recorded_result) VALUES
  ('O=C(c1cccnc1-c1ccncc1)N1CCC(O)(Cc2ccccc2)CC1 [soticlestat]', '209 ng·h/mL');

* * *

experimental-details: Healthy Japanese subjects, Part 2 (100, 200, 300 mg BID up-titration): PK of TAK-935 and M-I
Format: in vivo, human
measurement-conditions: human, plasma, oral, 100 mg, Day 7 (100 mg BID), Part 2, Median; read-out: AUCtau
experimental-readout: AUC (ng·h/mL)

INSERT INTO results (substance_smiles, value_unit, recorded_result) VALUES
  ('O=C(c1cccnc1-c1ccncc1)N1CCC(O)(Cc2ccccc2)CC1', 'ng·h/mL', 226);

* * *

experimental-details: clinical
Assay type: in vivo
measurement-conditions: both sexes, human, in vivo, po, 200 mg
experimental-readout: AUC(0-inf) (ng·h/mL)

INSERT INTO results (substance_smiles, value_unit, recorded_result) VALUES
  ('O=C(c1cccnc1-c1ccncc1)N1CCC(O)(Cc2ccccc2)CC1', 'ng·h/mL', 621);

* * *

experimental-details: Healthy Japanese subjects, Part 2 (100, 200, 300 mg BID up-titration): PK of TAK-935 and M-I
Assay type: in vivo, human
measurement-conditions: human, plasma, oral, 100 mg, Day 7, TAK-935 100 mg BID, plasma, mean; read-out: Vz/F
experimental-readout: Vd/F (L)

INSERT INTO results (substance_smiles, recorded_result) VALUES
  ('O=C(c1cccnc1-c1ccncc1)N1CCC(O)(Cc2ccccc2)CC1', 2940);

* * *

experimental-details: Healthy Japanese subjects, Part 2 (100, 200, 300 mg BID up-titration): PK of TAK-935 and M-I
Assay type: in vivo, human
measurement-conditions: human, plasma, oral, 200 mg, Day 14 (200 mg BID), Part 2, Geo Mean; read-out: AUC1ast
experimental-readout: AUC

INSERT INTO results (substance_smiles, experimental_readout, recorded_result) VALUES
  ('O=C(c1cccnc1-c1ccncc1)N1CCC(O)(Cc2ccccc2)CC1', 'AUC', '788 ng·h/mL');

* * *

experimental-details: clinical
Type: in vivo
measurement-conditions: both sexes, human, in vivo, po, 50 mg
experimental-readout: AUC(0-t) (ng·h/mL)

INSERT INTO results (substance_smiles, recorded_result) VALUES
  ('O=C(c1cccnc1-c1ccncc1)N1CCC(O)(Cc2ccccc2)CC1', 169);

* * *

experimental-details: Healthy Japanese subjects, Part 2 (100, 200, 300 mg BID up-titration): PK of TAK-935 and M-I
Assay type: in vivo, human
measurement-conditions: human, plasma, oral, 100 mg, Day 1, TAK-935 100 mg BID, plasma, mean; read-out: Cmax
Method: This study consisted of 2 parts, and was a randomized, double-blind, placebo-controlled study to assess safety, tolerability, and PK and PD of TAK-935 when administered orally in healthy Japanese subjects. […] The PK parameters of TAK-935 and its metabolites (M-I) were determined from the concentration-time profiles for all evaluable subjects. […] The following PK parameters were calculated from plasma concentrations of TAK-935 and its metabolites (M-I), unless otherwise specified: […]
experimental-readout: Cmax

INSERT INTO results (substance_smiles, recorded_result) VALUES
  ('O=C(c1cccnc1-c1ccncc1)N1CCC(O)(Cc2ccccc2)CC1', '255 ng/mL');
